Entries annotated with measured pIC50
# Tested system: peripheral DA2 dopaminergic receptors (Oryctolagus cuniculus)
# Sequence (G1T1Q0 1-443): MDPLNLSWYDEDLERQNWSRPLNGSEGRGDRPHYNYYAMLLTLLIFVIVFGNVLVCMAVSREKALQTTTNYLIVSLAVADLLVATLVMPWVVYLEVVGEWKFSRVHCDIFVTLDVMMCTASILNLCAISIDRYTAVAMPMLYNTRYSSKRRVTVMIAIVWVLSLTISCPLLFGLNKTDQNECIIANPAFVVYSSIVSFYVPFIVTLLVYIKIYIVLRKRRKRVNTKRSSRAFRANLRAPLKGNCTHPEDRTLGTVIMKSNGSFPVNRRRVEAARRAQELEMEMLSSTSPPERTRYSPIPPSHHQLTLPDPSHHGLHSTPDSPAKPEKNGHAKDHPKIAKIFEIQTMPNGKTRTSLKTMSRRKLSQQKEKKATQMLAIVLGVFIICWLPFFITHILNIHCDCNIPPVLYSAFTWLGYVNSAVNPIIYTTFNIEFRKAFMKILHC
# Experiment: Peripheral DA2 dopaminergic activity in electrically stimulated rabbit rectococcygeus muscle
# Conditions: read-out: IC50, 50% inhibition of the electrically induced contraction
pIC50: −log10 of the molar value.
Observation type: pIC50

{"Molecule": "NCCc1ccc(O)c(O)c1 [DOPAMINE, dopamine, reference compound]", "Observation type": "pIC50", "Recorded result": 7.00}
{"Molecule": "CNC1CCc2c(ccc(OC(=O)C(C)C)c2OC(=O)C(C)C)C1 (stereo not drawn) [CHF 1035]", "Observation type": "pIC50", "Recorded result": 7.53}
{"Molecule": "CNC1CCc2c(ccc(O)c2O)C1 (stereo not drawn) [CHF 1024, 5,6-dihydroxy-2-methylaminotetralin]", "Observation type": "pIC50", "Recorded result": 7.43}

====

Entries annotated with measured pIC50
# Tested system: α2-adrenergic receptors
# Experiment: α2-adrenergic activity in isolated neuronally-stimulated rat vas deferens
# Conditions: isolated neuronally-stimulated rat vas deferens; read-out: IC50, 50% inhibition of the electrically induced contraction
pIC50: −log10 of the molar value.
Observation type: pIC50

{"Molecule": "CNC1CCc2c(ccc(O)c2O)C1 (stereo not drawn) [CHF 1024, 5,6-dihydroxy-2-methylaminotetralin]", "Recorded result": 6.57}
{"Molecule": "NCCc1ccc(O)c(O)c1 [DOPAMINE, dopamine, reference compound]", "Recorded result": 5.31}
{"Molecule": "CNC1CCc2c(ccc(OC(=O)C(C)C)c2OC(=O)C(C)C)C1 (stereo not drawn) [CHF 1035]", "Recorded result": 7.15}

====

# Tested system: α2 adrenergic receptors
# Experiment: α2 adrenergic receptor binding, [3H]-rauwolscine, rat cerebral cortex
# Conditions: rat cerebral cortex; read-out: IC50, 50% inhibition of [3H]-rauwolscine specific binding
Entries annotated with measured IC50
Observation type: IC50 (µM)

{"Molecule": "CNC1CCc2c(ccc(OC(=O)C(C)C)c2OC(=O)C(C)C)C1 (stereo not drawn) [CHF 1035]", "Observation type": "IC50", "Units": "µM", "Recorded result": 2.65}
{"Molecule": "NCCc1ccc(O)c(O)c1 [DOPAMINE, dopamine, reference compound]", "Observation type": "IC50", "Units": "µM", "Recorded result": 4.06}
{"Molecule": "CNC1CCc2c(ccc(O)c2O)C1 (stereo not drawn) [CHF 1024, 5,6-dihydroxy-2-methylaminotetralin]", "Observation type": "IC50", "Units": "µM", "Recorded result": 0.262}

====

# Tested system: peripheral DA2 dopaminergic receptors (Bos taurus)
# Sequence (P20288 whole entry): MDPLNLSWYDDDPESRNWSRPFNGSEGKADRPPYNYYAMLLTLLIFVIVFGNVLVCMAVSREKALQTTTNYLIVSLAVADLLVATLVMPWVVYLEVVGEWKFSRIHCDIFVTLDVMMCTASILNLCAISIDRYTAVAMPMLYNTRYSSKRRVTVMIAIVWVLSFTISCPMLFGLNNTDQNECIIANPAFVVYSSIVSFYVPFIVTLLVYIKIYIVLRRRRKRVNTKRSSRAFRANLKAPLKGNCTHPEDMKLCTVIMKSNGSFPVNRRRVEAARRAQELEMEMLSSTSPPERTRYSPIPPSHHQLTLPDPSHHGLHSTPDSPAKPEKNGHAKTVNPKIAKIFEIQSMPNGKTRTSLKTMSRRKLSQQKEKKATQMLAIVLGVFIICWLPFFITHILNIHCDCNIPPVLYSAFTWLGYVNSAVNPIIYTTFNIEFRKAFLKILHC
pIC50: −log10 of the molar value.
Observation type: pIC50

{"Compound": "CNC1CCc2c(ccc(O)c2O)C1 (stereo not shown) [CHF 1024, 5,6-dihydroxy-2-methylaminotetralin]", "Tested system": "peripheral DA2 dopaminergic receptors (Bos taurus)", "Observation type": "pIC50", "Recorded result": 7.68}

====

# Tested system: α2 adrenergic receptors (Homo sapiens, UniProt P08913)
# Sequence (P08913 1-465): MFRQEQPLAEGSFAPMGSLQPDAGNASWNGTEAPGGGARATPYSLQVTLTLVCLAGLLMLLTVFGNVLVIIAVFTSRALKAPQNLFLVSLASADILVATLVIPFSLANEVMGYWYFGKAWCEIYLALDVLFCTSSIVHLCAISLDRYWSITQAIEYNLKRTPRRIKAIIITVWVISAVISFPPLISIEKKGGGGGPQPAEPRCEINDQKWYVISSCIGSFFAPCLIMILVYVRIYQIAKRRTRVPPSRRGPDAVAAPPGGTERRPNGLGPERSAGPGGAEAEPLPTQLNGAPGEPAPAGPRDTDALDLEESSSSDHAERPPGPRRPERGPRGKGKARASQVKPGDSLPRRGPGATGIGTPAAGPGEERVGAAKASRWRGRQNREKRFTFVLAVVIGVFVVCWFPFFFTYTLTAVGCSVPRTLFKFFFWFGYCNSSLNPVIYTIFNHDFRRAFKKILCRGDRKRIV
pIC50: −log10 of the molar value.

{"Compound": "CNC1CCc2c(ccc(O)c2O)C1 (stereo not shown) [CHF 1024, 5,6-dihydroxy-2-methylaminotetralin]", "pIC50": 6.47}
